Attribution: PubChem BioAssay (NCI)

Consider the following compounds; for each one, report its growth inhibition.
# Test Protocol: NCI Yeast Anticancer Drug Screen. Data for the mec2-1 strain (AID 157)
# Test Settings: S. cerevisiae mec2-1 strain, at 50.0 µM, active compounds read high
Compounds without any hit were thinned out: in the full panel of roughly 79,000, 15% have a hit.
One number for each entry, in %.

COc1ccc2c3c(c4cc(OC)c(OC)cc4c2c1)C[C@H]1CCCCN1C3; 94.2
O=C1NC(=S)NC(=O)C1=C/C=C/c1ccccc1; 46.6

// query growth inhibition value for entry CSCCl
94.5

###

# Test Protocol: NCI Yeast Anticancer Drug Screen. Data for the mec2-1 strain (AID 157)
# Test Settings: S. cerevisiae mec2-1 strain, at 50.0 µM
This is part of a sample that, as a whole, favours compounds with a hit. Of some 79,000 tested, about 15% had one in any assay. The source made the active and inactive calls. No stated cut-off is given here; in the data, active means growth inhibition above about 70%; inactive means the rest.
// classify into active, inactive

Solved cases below.
N=C(N)SCc1ccccc1; inactive
O=C(CBr)Nc1ccccc1Cl; active
CC(C)[O-].CC(C)[O-].[O-]c1cccc2cccnc12.[O-]c1cccc2cccnc12.[Ti+4]; active
CCC[As](CCC)SC1CCC2(C)C(=CCC3C4CCC(=O)C4(C)CCC32)C1 (stereo not given); inactive
CC(Cc1ccccc1)[N+](=O)[O-] (stereo not given); inactive
Clc1ccc2c(NCCCCN3OC3c3ccccc3)ccnc2c1 (stereo not given); inactive
CNC(Cc1ccccc1)c1ccc(OC)c(OC)c1 (stereo not given); inactive
CCOP(=S)(OCC)SC(O)(C(F)F)C(F)F; inactive
O=c1oc2ccccc2c(O)c1C(c1ccc(-c2ccccc2)cc1)c1c(O)c2ccccc2oc1=O; active
Oc1c(Cl)cc(Cl)cc1Cl; active

Give the logged outcome of this assay for the following compound: C/C(=N\O)C(CN(C)C)C(c1ccccc1)c1c(O)c2ccccc2oc1=O (stereo not given)
inactive

One more compound: C[CH2][Sn]([Cl])([CH2]C)[O][Sn]([Cl])([CH2]C)[CH2]C
active

Same thing, different compound: O=c1[nH]cnc2[nH]cc(CN3CCCCC3)c12
inactive

Repeat with CCN(CC)P1(=O)OC(c2ccccc2)=CCN1c1ccc(OC)cc1 (stereo not given)
active

Next compound up: O=[As]c1ccc([N+](=O)[O-])cc1 (stereo not given)
active

What do we get for Cc1cc[n+](C2=C(Nc3ccc(Cl)cc3Cl)C(=O)c3ccccc3C2=O)cc1 ?
inactive

What about this compound? c1ccc(C(C(=Nc2ccc(Cc3ccc(N=C(C(c4ccccc4)c4ccccc4)N4CC4)cc3)cc2)N2CC2)c2ccccc2)cc1
active

Then O=c1oc2ccccc2c(O)c1C(c1ccc(OCc2ccccc2)cc1)c1c(O)c2ccccc2oc1=O ?
active

Quick one: Oc1c(Cl)c(Cl)c(Cl)c(Cl)c1Cl.[Cu+2]
active

Next up: O=C(CBr)OCc1ccccc1
active

Next record, please: CN(C)CCC(C(=O)C(Br)Br)(c1ccccc1)c1ccccc1
active

C[Si]1(C)CCCCC2(C1)C(=O)NC(=O)NC2=O , same question.
inactive

Another compound to look at: c1ccc2c(c1)c1cccc3c4c5ccccc5c5cccc(c2c13)c54
inactive

Now consider COc1cc([C@@H]2c3cc4c(cc3C[C@@H]3COC(=O)C32)OCO4)cc(OC)c1O (stereo not given in full) and answer again.
active
